Test: Binding affinity to capsid protein in Hepatitis B virus infected in human HepG2.2.15 cells assessed as inhibition of HBV DNA replication incubated for 3 days followed by replacement of fresh medium containing compound and measured after 3 days by chemiluminescent assay
Please provide measured EC50 for the entries that follow.
Answers are plain numbers, in nM.

CC1(O)CCCN(S(=O)(=O)c2cc(C(=O)Nc3ccc(F)c(Cl)c3)ccc2F)CC1 (centres undefined)    110
O=C(Nc1ccc(F)c(Cl)c1)c1ccc(F)c(S(=O)(=O)N2CCCC(O)CC2)c1 (centres undefined)    140
CC1(O)CCCCN(S(=O)(=O)c2cc(C(=O)Nc3ccc(F)c(Cl)c3)ccc2F)C1 (centres undefined)    120
O=C(Nc1ccc(F)c(Cl)c1)c1ccc(F)c(S(=O)(=O)N2CCSCC(O)C2)c1 (centres undefined)    170
O=C(Nc1ccc(F)c(Cl)c1)c1ccc(F)c(S(=O)(=O)N2CCOC[C@H](O)C2)c1    63
O=C(Nc1ccc(F)c(Cl)c1)c1ccc(F)c(S(=O)(=O)N2CCCCC(O)C2)c1 (centres undefined)    170

Batch request: EC50 for each of the following compounds.
1. O=C(Nc1ccc(F)c(Cl)c1)c1ccc(F)c(S(=O)(=O)N2CCOCC(F)C2)c1 (centres undefined)
2. O=C(Nc1ccc(F)c(Cl)c1)c1ccc(F)c(S(=O)(=O)N2CCCCCCC2O)c1 (centres undefined)
3. CN1CCN(S(=O)(=O)c2cc(C(=O)Nc3ccc(F)c(Cl)c3)ccc2F)CC(O)C1 (centres undefined)
4. CC1(O)COCCN(S(=O)(=O)c2cc(C(=O)Nc3ccc(F)c(Cl)c3)ccc2F)C1 (centres undefined)

### Response
[80, 120, 470, 100]

Batch request: EC50 for each of the following compounds.
1. O=C(Nc1ccc(F)c(Cl)c1)c1ccc(F)c(S(=O)(=O)N2CCOC[C@@H](O)C2)c1
2. O=C(Nc1ccc(F)c(Cl)c1)c1ccc(F)c(S(=O)(=O)N2CCCCC(O)CC2)c1 (centres undefined)
3. CC(O)C1CCCCN(S(=O)(=O)c2cc(C(=O)Nc3ccc(F)c(Cl)c3)ccc2F)C1 (centres undefined)
4. O=C(Nc1ccc(F)c(Cl)c1)c1ccc(F)c(S(=O)(=O)N2CCOCC(O)C2)c1 (centres undefined)
5. CN1CCCN(S(=O)(=O)c2cc(C(=O)Nc3ccc(F)c(Cl)c3)ccc2F)CC1=O
6. COC1COCCN(S(=O)(=O)c2cc(C(=O)Nc3ccc(F)c(Cl)c3)ccc2F)C1 (centres undefined)
7. O=C(Nc1ccc(F)c(Cl)c1)c1ccc(F)c(S(=O)(=O)N2CCCCC(F)(F)C2)c1
8. O=C(Nc1ccc(F)c(Cl)c1)c1ccc(F)c(S(=O)(=O)N2CCCCC(CO)C2)c1 (centres undefined)

### Response
1: 140; 2: 52; 3: 140; 4: 100; 5: 220; 6: 130; 7: 140; 8: 140

### Prompt Consider the compound shown here: O=C(Nc1ccc(F)c(Cl)c1)c1ccc(F)c(S(=O)(=O)N2CCCCCC(O)C2)c1 (centres undefined) What is its recorded EC50?
### Response 60

The origin of these recorded values is BindingDB's records for doi:10.1016/j.bmcl.2019.05.029.
